- Test system: Erythrocyte
- testName: Cytoprotective activity against H2O2-induced genomic DNA damage in chicken RBC assessed as DNA level in comet tail region pre-incubated at 100 uM followed by H2O2 addition by single cell alkaline gel electrophoresis and fluorescent microscopy based comet assay (reference value: 45.78 +/- 3.24%)
- Assay type: functional, Gallus gallus

# compound, Activity [%]
measured = [
    ("COc1cc2c(cc1O)C1(O)c3ccccc3C(=O)N1CC2 (stereo not given)", 7.34),
    ("COc1ccc(OC)c2c1CCN1C(=O)c3ccccc3C21O (stereo not given)", 8.55),
    ("Cc1ccc2c(c1)CCN1C(=O)c3ccccc3C21O (stereo not given)", 11.44),
    ("COc1ccc2c(c1)CCN1C(=O)c3ccccc3C21O (stereo not given)", 41.96),
    ("COc1ccc2c(c1OC)CCN1C(=O)CCCC21 (stereo not given)", 9.75),
    ("COc1cc2c(cc1OC)C1(O)c3ccccc3C(=O)N1CC2 (stereo not given)", 34.44),
    ("COc1cc2c(c(OC)c1)C1CCC(=O)N1CC2 (stereo not given)", 45.8),
    ("O=C1c2ccccc2C2(O)c3ccc(Br)cc3CCN12 (stereo not given)", 4.55),
    ("COc1ccc2c(c1OC)CCN1C(=O)c3ccccc3C21O (stereo not given)", 42.97),
    ("COc1cc2c(cc1OC)C1(O)C3C4c5ccccc5C(c5ccccc54)C3C(=O)N1CC2 (stereo not given)", 16.55),
]
